assay: Bioavailability and pharmacokinetics of polymorphs 1 and 2 after single oral dose, cross-over, in dogs; format: in vivo, male Beagle dog; settings: male, Beagle, dog, plasma, po, 60 mg/kg, male Beagle dog plasma, oral suspension, target 60 mg/kg, corrected to a 60.0 mg dose; read-out: LS geometric mean AUC(0-∞)
Parameter: AUC(0-inf) (ng·h/mL)

Structure notation	Quantitative readout
C[C@H](O)COC[C@H](Cc1ccc(O)cc1)NC(=O)CCc1ccccc1	13200

----------
assay: Bioavailability and pharmacokinetics of polymorphs 1 and 2 after single oral dose, cross-over, in dogs; format: in vivo, male Beagle dog; conditions: plasma; male Beagle dog, oral 60 mg/kg, terminal decline; read-out: estimated mean half-life

Molecule	half-life
C[C@H](O)COC[C@H](Cc1ccc(O)cc1)NC(=O)CCc1ccccc1 [NRD135S.E1]	3 to 4 h

Reference source for all entries: patent US11891350B2
